A collection of compounds and their measured MIC90
# Tested on: Acinetobacter baumannii
# METHOD SUMMARY: Antibacterial activity against Acinetobacter baumannii by broth dilution method
# Format: functional
ASSAY METRIC: MIC90

[[record]]
compound = "COc1c(N2C[C@@H](C)C[C@H](N)C2)ccc2c(=O)c(C(=O)O)cn(C3CC3)c12.O=C(O)CC(O)C(=O)O [NEMONOXACIN MALIC ACID]"
reported_value = "> 16 µg/mL"

[[record]]
compound = "C[C@@H](O)[C@H]1C(=O)N2C(C(=O)O)=C(SCCNC=N)C[C@H]12 [IMIPENEM ANHYDROUS]"
reported_value = "> 32 µg/mL"

[[record]]
compound = "CO/N=C(\\C(=O)N[C@@H]1C(=O)N2C(C(=O)[O-])=C(C[N+]3(C)CCCC3)CS[C@H]12)c1csc(N)n1"
reported_value = "> 8 µg/mL"

[[record]]
compound = "O=C(O)c1cn(C2CC2)c2cc(N3CCNCC3)c(F)cc2c1=O [CIPROFLOXACIN]"
reported_value = "> 16 µg/mL"


====

# System: Streptococcus agalactiae
# METHOD SUMMARY: Antibacterial activity against Streptococcus agalactiae by broth dilution method
# Assay type: functional
ASSAY METRIC: MIC50 (µg/mL)

[[record]]
compound = "C[C@H]1COc2c(N3CCN(C)CC3)c(F)cc3c(=O)c(C(=O)O)cn1c23.C[C@H]1COc2c(N3CCN(C)CC3)c(F)cc3c(=O)c(C(=O)O)cn1c23.O [LEVOFLOXACIN]"
assay_metric = "MIC50"
measurement_units = "µg/mL"
prefix_operator = "="
reported_value = 1

[[record]]
compound = "CN(C)c1cc(NC(=O)CNC(C)(C)C)c(O)c2c1C[C@H]1C[C@H]3[C@H](N(C)C)C(O)=C(C(N)=O)C(=O)[C@@]3(O)C(O)=C1C2=O [TIGECYCLINE]"
assay_metric = "MIC50"
measurement_units = "µg/mL"
prefix_operator = "="
reported_value = 0.03

[[record]]
compound = "CO/N=C(\\C(=O)N[C@@H]1C(=O)N2C(C(=O)O)=C(CSc3nc(=O)c(O)nn3C)CS[C@H]12)c1csc(N)n1 [CEFTRIAXONE]"
assay_metric = "MIC50"
measurement_units = "µg/mL"
prefix_operator = "≤"
reported_value = 0.06


====

# System: Pseudomonas aeruginosa
# METHOD SUMMARY: Antibacterial activity against Pseudomonas aeruginosa by broth dilution method
# Assay type: functional
ASSAY METRIC: MIC50 (µg/mL)

[[record]]
compound_smiles = "C[C@H]1COc2c(N3CCN(C)CC3)c(F)cc3c(=O)c(C(=O)O)cn1c23.C[C@H]1COc2c(N3CCN(C)CC3)c(F)cc3c(=O)c(C(=O)O)cn1c23.O"
assay_metric = "MIC50"
reported_value = 8

[[record]]
compound_smiles = "O=C(O)c1cn(C2CC2)c2cc(N3CCNCC3)c(F)cc2c1=O"
assay_metric = "MIC50"
reported_value = 4

[[record]]
compound_smiles = "CC(C)(O/N=C(\\C(=O)N[C@@H]1C(=O)N2C(C(=O)[O-])=C(C[n+]3ccccc3)CS[C@H]12)c1csc(N)n1)C(=O)O"
assay_metric = "MIC50"
reported_value = 32

[[record]]
compound_smiles = "CN(C)c1cc(NC(=O)CNC(C)(C)C)c(O)c2c1C[C@H]1C[C@H]3[C@H](N(C)C)C(O)=C(C(N)=O)C(=O)[C@@]3(O)C(O)=C1C2=O"
assay_metric = "MIC50"
reported_value = 8

[[record]]
compound_smiles = "COc1c(N2C[C@@H](C)C[C@H](N)C2)ccc2c(=O)c(C(=O)O)cn(C3CC3)c12.O=C(O)CC(O)C(=O)O"
assay_metric = "MIC50"
reported_value = 16


====

# Tested on: Enterobacter cloacae
# METHOD SUMMARY: Antibacterial activity against Enterobacter cloacae by broth dilution method
# Format: functional
ASSAY METRIC: MIC50

[[record]]
molecule = "COc1c(N2C[C@@H](C)C[C@H](N)C2)ccc2c(=O)c(C(=O)O)cn(C3CC3)c12.O=C(O)CC(O)C(=O)O [NEMONOXACIN MALIC ACID]"
reported_value = "4 µg/mL"

[[record]]
molecule = "C[C@H]1COc2c(N3CCN(C)CC3)c(F)cc3c(=O)c(C(=O)O)cn1c23.C[C@H]1COc2c(N3CCN(C)CC3)c(F)cc3c(=O)c(C(=O)O)cn1c23.O [LEVOFLOXACIN]"
reported_value = "2 µg/mL"

[[record]]
molecule = "CCN1CCN(C(=O)N[C@@H](C(=O)N[C@@H]2C(=O)N3[C@@H]2SC(C)(C)[C@@H]3C(=O)O)c2ccccc2)C(=O)C1=O [PIPERACILLIN]"
reported_value = "> 128 µg/mL"

[[record]]
molecule = "CO/N=C(\\C(=O)N[C@@H]1C(=O)N2C(C(=O)O)=C(CSc3nc(=O)c(O)nn3C)CS[C@H]12)c1csc(N)n1 [CEFTRIAXONE]"
reported_value = "> 8 µg/mL"

[[record]]
molecule = "CC(C)(O/N=C(\\C(=O)N[C@@H]1C(=O)N2C(C(=O)[O-])=C(C[n+]3ccccc3)CS[C@H]12)c1csc(N)n1)C(=O)O [CEFTAZIDIME]"
reported_value = "128 µg/mL"

[[record]]
molecule = "C[C@@H](O)[C@H]1C(=O)N2C(C(=O)O)=C(SCCNC=N)C[C@H]12 [IMIPENEM ANHYDROUS]"
reported_value = "1 µg/mL"

[[record]]
molecule = "CN(C)c1cc(NC(=O)CNC(C)(C)C)c(O)c2c1C[C@H]1C[C@H]3[C@H](N(C)C)C(O)=C(C(N)=O)C(=O)[C@@]3(O)C(O)=C1C2=O [TIGECYCLINE]"
reported_value = "0.5 µg/mL"


====

# System: Citrobacter freundii
# METHOD SUMMARY: Antibacterial activity against Citrobacter freundii by broth dilution method
# Assay type: functional
ASSAY METRIC: MIC50

[[record]]
compound_smiles = "CC(C)(O/N=C(\\C(=O)N[C@@H]1C(=O)N2C(C(=O)[O-])=C(C[n+]3ccccc3)CS[C@H]12)c1csc(N)n1)C(=O)O"
reported_value = "≤ 1 µg/mL"

[[record]]
compound_smiles = "CO/N=C(\\C(=O)N[C@@H]1C(=O)N2C(C(=O)[O-])=C(C[N+]3(C)CCCC3)CS[C@H]12)c1csc(N)n1"
reported_value = "≤ 0.06 µg/mL"

[[record]]
compound_smiles = "O=C(O)c1cn(C2CC2)c2cc(N3CCNCC3)c(F)cc2c1=O"
reported_value = "≤ 0.06 µg/mL"

